Experiment: activity coefficient (dimensionless); of the first substance listed, at infinite dilution; xn = mol fraction of the nth substance listed
Details: 348.15 K; 101 kPa; Liquid; Chromatography; x1 = 0
# if measured activity coefficient < 10: t  # else: f

Q. Please let me know if CCCCCCCCC [nonane] + CCCCCC[n+]1ccc2ccccc2c1.N#C[S-] shows activity coefficient below 10.
A. f

Q. Determine if CCCCO [butan-1-ol] + CCCCCC[n+]1ccc2ccccc2c1.N#C[S-] shows activity coefficient strictly lower than 10.
A. t

Q. Would you kindly verify if activity coefficient of C1CCCC1 [cyclopentane] + CCCCCC[n+]1ccc2ccccc2c1.N#C[S-] is strictly less than 10?
A. f

Q. Is it true that activity coefficient reported for CO [methanol] + CCCCCC[n+]1ccc2ccccc2c1.N#C[S-] is less than 10?
A. t

Q. Dear colleague, could you confirm whether activity coefficient of C#CCCC [1-pentyne] + CCCCCC[n+]1ccc2ccccc2c1.N#C[S-] falls below 10? Thanks.
A. t

Q. I wonder whether C1CCCCCCC1 [cyclooctane] + CCCCCC[n+]1ccc2ccccc2c1.N#C[S-] has activity coefficient below 10. Can you tell?
A. f

Q. Criterion: activity coefficient strictly below 10. Is it met by C#CCCCCC [1-heptyne] + CCCCCC[n+]1ccc2ccccc2c1.N#C[S-] ?
A. t

Q. is_below(activity coefficient, 10) for C=CCCCCCCCC [1-decene] + CCCCCC[n+]1ccc2ccccc2c1.N#C[S-] ?
A. f

Q. Is activity coefficient strictly under 10 for the entry CCCCCCC [heptane] + CCCCCC[n+]1ccc2ccccc2c1.N#C[S-] ?
A. f

Q. Find out if reported activity coefficient for C=CCCCCCC [oct-1-ene] + CCCCCC[n+]1ccc2ccccc2c1.N#C[S-] is less than 10
A. f

Q. Hello, I'm reviewing records and need to know if activity coefficient of Cc1cccc(C)c1 [1,3-dimethylbenzene] + CCCCCC[n+]1ccc2ccccc2c1.N#C[S-] is below 10. Could you check?
A. t

Q. Given C1CCCCC1 [cyclohexane] + CCCCCC[n+]1ccc2ccccc2c1.N#C[S-] , is recorded activity coefficient strictly lower than 10?
A. f

Q. Here's an entry: C1CCCCCC1 [cycloheptane] + CCCCCC[n+]1ccc2ccccc2c1.N#C[S-] . Is its activity coefficient below 10?
A. f

Q. Does the reported activity coefficient of CCC[N+](=O)[O-] [1-nitropropane] + CCCCCC[n+]1ccc2ccccc2c1.N#C[S-] stay below 10?
A. t

Q. Say whether its activity coefficient is strictly beneath 10. Entry: CCC(C)(C)C [2,2-dimethylbutane] + CCCCCC[n+]1ccc2ccccc2c1.N#C[S-]
A. f

Q. Record COC(C)(C)C [2-methoxy-2-methylpropane] + CCCCCC[n+]1ccc2ccccc2c1.N#C[S-] : is its activity coefficient strictly below 10?
A. t

Q. Hello, I'm reviewing records and need to know if activity coefficient of C=CCCC [1-pentene] + CCCCCC[n+]1ccc2ccccc2c1.N#C[S-] is below 10. Could you check?
A. f

Q. Record CC(C)CC(C)(C)C [2,2,4-trimethylpentane] + CCCCCC[n+]1ccc2ccccc2c1.N#C[S-] : is its activity coefficient strictly below 10?
A. f

Q. Hi there! Is activity coefficient for C#CCCCCCC [1-octyne] + CCCCCC[n+]1ccc2ccccc2c1.N#C[S-] below 10, do you know?
A. t

Reference source for all entries: the NIST ThermoML archive (doi:10.1016/j.jct.2013.02.004)
